Record form. Attribute: Log K2. Fill in for each entry.
assay: Equilibrium constant (K2) of the compound.; assay type: ADME

Asked: Reported Log K2 for O=P(O)(O)O[C@@H]1[C@H](O)[C@H](O)[C@@H](OP(=O)(O)O)[C@H](OP(=O)(O)O)[C@H]1O [INS(1,4,5)P3] : what is it?
Given back: 6.4

Asked: Reported Log K2 for O=P(O)(O)O[C@@H]1[C@@H](O)[C@@H](O)[C@@H](OP(=O)(O)O)C[C@H]1OP(=O)(O)O : what is it?
Given back: 6.65

Asked: Reported Log K2 for O=P(O)(O)O[C@@H]1[C@H](O)[C@H](O)[C@@H](OP(=O)(O)O)[C@H](OP(=O)(O)O)[C@H]1F : what is it?
Given back: 6.64

Asked: Reported Log K2 for O=P(O)(O)O[C@@H]1[C@H](O)[C@H](O)[C@@H](OP(=O)(O)O)[C@H](OP(=O)(O)O)[C@@H]1O : what is it?
Given back: 6.39

Asked: Reported Log K2 for N[C@@H]1[C@@H](OP(=O)(O)O)[C@H](OP(=O)(O)O)[C@@H](O)[C@@H](O)[C@H]1OP(=O)(O)O : what is it?
Given back: 7.35

====

assay: Equilibrium constant (K3) of the compound.; format: ADME
Record form. Attribute: Log K3. Fill in for each entry.
Give a plain numeric answer without units written out.

Asked: Reported Log K3 for O=P(O)(O)O[C@@H]1[C@H](O)[C@H](O)[C@@H](OP(=O)(O)O)[C@H](OP(=O)(O)O)[C@H]1F : what is it?
Given back: 5.56

Asked: Reported Log K3 for O=P(O)(O)O[C@@H]1[C@@H](O)[C@@H](O)[C@@H](OP(=O)(O)O)C[C@H]1OP(=O)(O)O : what is it?
Given back: 5.53

Asked: Reported Log K3 for N[C@@H]1[C@@H](OP(=O)(O)O)[C@H](OP(=O)(O)O)[C@@H](O)[C@@H](O)[C@H]1OP(=O)(O)O : what is it?
Given back: 5.58

Asked: Reported Log K3 for O=P(O)(O)O[C@@H]1[C@H](O)[C@H](O)[C@@H](OP(=O)(O)O)[C@H](OP(=O)(O)O)[C@@H]1O : what is it?
Given back: 5.4

Asked: Reported Log K3 for O=P(O)(O)O[C@@H]1[C@H](O)[C@H](O)[C@@H](OP(=O)(O)O)[C@H](OP(=O)(O)O)[C@H]1O : what is it?
Given back: 5.31

====

biological target: Inositol 1,4,5-trisphosphate-gated calcium channel ITPR3 (Bos taurus); assay: Binding affinity against Inositol 1,4,5-trisphosphate receptor on bovine adrenal cortex microsomes.
Record form. Attribute: IC50. Fill in for each entry.
Reply with just the number (in nM).

Asked: What measured IC50 is associated with N[C@@H]1[C@@H](OP(=O)(O)O)[C@H](OP(=O)(O)O)[C@@H](O)[C@@H](O)[C@H]1OP(=O)(O)O on Inositol 1,4,5-trisphosphate-gated calcium channel ITPR3 (Bos taurus)?
Given back: 5000

Asked: What measured IC50 is associated with O=P(O)(O)O[C@@H]1[C@@H](O)[C@@H](O)[C@@H](OP(=O)(O)O)C[C@H]1OP(=O)(O)O on Inositol 1,4,5-trisphosphate-gated calcium channel ITPR3 (Bos taurus)?
Given back: 1000

Asked: What measured IC50 is associated with O=P(O)(O)O[C@@H]1[C@H](O)[C@H](O)[C@@H](OP(=O)(O)O)[C@H](OP(=O)(O)O)[C@H]1F on Inositol 1,4,5-trisphosphate-gated calcium channel ITPR3 (Bos taurus)?
Given back: 2000

Asked: What measured IC50 is associated with O=P(O)(O)O[C@@H]1CC[C@@H](OP(=O)(O)O)[C@H](OP(=O)(O)O)C1 on Inositol 1,4,5-trisphosphate-gated calcium channel ITPR3 (Bos taurus)?
Given back: 3900

Every entry's value here was drawn from ChEMBL document CHEMBL1132480.
